The compounds listed here are annotated with their IC50.
Tested on: human breast cancer MCF7 cells
Test: Cell proliferation assay (CCK-8)
Type: cell-based
Settings: MCF7, 72 h

[
  {
    "COMPOUND": "C[C@H]1CCC/C=C/[C@@H]2C[C@H](O)C[C@H]2[C@H](OC(=O)/C=C/c2ccc(F)cc2)/C=C/C(=O)O1",
    "IC50": "0.1 to 1 µM"
  },
  {
    "COMPOUND": "C[C@H]1CCC/C=C/[C@@H]2C[C@H](OC(=O)/C=C/c3ccc(C(F)(F)F)cc3)C[C@H]2[C@H](OC(=O)/C=C/c2ccc(C(F)(F)F)cc2)/C=C/C(=O)O1 [Compound 13c]",
    "IC50": "1 to 10 µM"
  },
  {
    "COMPOUND": "C[C@H]1CCC/C=C/[C@@H]2C[C@H](OC(=O)/C=C/c3ccc4c(c3)OCO4)C[C@H]2C(OC(=O)/C=C/c2ccc3c(c2)OCO3)/C=C/C(=O)O1 (stereo partly drawn)",
    "IC50": "1 to 10 µM"
  }
]

====

System: human liver cancer HepG2 cells
Assay: Cell proliferation assay (CCK-8)
Assay type: cell-based
Settings: HepG2, 72 h
The compounds listed here are annotated with their IC50.
MEASUREMENT_NAME: IC50

[
  {
    "COMPOUND": "C[C@H]1CCC/C=C/[C@@H]2C[C@H](OC(=O)/C=C/c3ccccc3F)C[C@H]2[C@H](O)/C=C/C(=O)O1",
    "RESULT": "100 to 1000 nM"
  },
  {
    "COMPOUND": "Cc1cccc(/C=C/C(=O)O[C@@H]2C[C@@H]3[C@H](/C=C/CCC[C@H](C)OC(=O)/C=C/[C@H]3OC(=O)/C=C/c3cccc(C)c3)C2)c1",
    "RESULT": "1000 to 10000 nM"
  },
  {
    "COMPOUND": "C[C@H]1CCC/C=C/[C@@H]2C[C@H](OC(=O)/C=C/c3ccc(C(F)(F)F)cc3)C[C@H]2[C@H](OC(=O)/C=C/c2ccc(C(F)(F)F)cc2)/C=C/C(=O)O1 [Compound 13c]",
    "RESULT": "1000 to 10000 nM"
  },
  {
    "COMPOUND": "C[C@H]1CCC/C=C/[C@@H]2C[C@H](OC(=O)/C=C/c3cnc4ccccc4c3)C[C@H]2[C@H](O)/C=C/C(=O)O1 [Compound 17a]",
    "RESULT": "< 100 nM"
  },
  {
    "COMPOUND": "C[C@H]1CCC/C=C/[C@@H]2C[C@H](OC(=O)/C=C/c3ccccc3F)C[C@H]2[C@H](OC(=O)/C=C/c2ccccc2F)/C=C/C(=O)O1",
    "RESULT": "1000 to 10000 nM"
  }
]

====

The molecules listed here are annotated with their pIC50.
Tested on: human lung cancer A549 cells
Assay: Cell proliferation assay (CCK-8)
Type: cell-based
Conditions: A549, 72 h
pIC50: −log10 of the molar value.

[
  {
    "MOLECULE": "C[C@H]1CCC/C=C/[C@@H]2C[C@H](OC(=O)/C=C/c3cccc(Cl)c3)C[C@H]2[C@H](OC(=O)/C=C/c2cccc(Cl)c2)/C=C/C(=O)O1 [Compound 5c, 4,7-O-bis(3-chlorocinnamic acid)acyl BFA]",
    "pIC50": "6.00 to 7.00"
  },
  {
    "MOLECULE": "C[C@H]1CCC/C=C/[C@@H]2C[C@H](OC(=O)/C=C/c3ccc4c(c3)OCO4)C[C@H]2[C@H](O)/C=C/C(=O)O1 [Compound 9a]",
    "pIC50": "6.00 to 7.00"
  },
  {
    "MOLECULE": "C[C@H]1CCC/C=C/[C@@H]2C[C@H](OC(=O)/C=C/c3cccnc3)C[C@H]2[C@H](O)/C=C/C(=O)O1 [Compound 16a]",
    "pIC50": "6.00 to 7.00"
  }
]
